# Tested on: HEK-293T
# PROTOCOL SUMMARY: Multiplex assay against HEK293T
# Assay type: toxicity, cell-based
# STUDY CONDITIONS: human, 48 h, 1 µM, compound concentration 1 uM, replicate 1
Non-standard residues stand in square brackets, D forms with d. Residues, ends and D or L forms follow the SMILES beside them.
Recorded Population Pyknosed Nuclei (%) for the following compounds
# unit: % | format: bare number

In the examples that follow, each entry is paired with its recorded Population Pyknosed Nuclei (%).
CC(C)(C)c1ccc(CSc2cnn(C(C)(C)C)c(=O)c2Cl)cc1: 7
O=C(NCCNCC(O)COc1ccc(O)cc1)N1CCOCC1.O=C(NCCNCC(O)COc1ccc(O)cc1)N1CCOCC1.O=C(O)/C=C/C(=O)O (stereo not given) [XAMOTEROL FUMARATE]: 7
CC(C)C[C@@H]1NC(=O)[C@@H](C(C)C)NC(=O)[C@@H]2CCCN2C(=O)[C@@H](CC(=O)O)NC(=O)[C@@H](Cc2c[nH]c3ccccc23)NC1=O [BQ-123] (cyclo(L[dW][dD]P[dV])): 9
COc1ccc2[nH]c(I)c(CCNC(C)=O)c2c1: 7
C[C@H](NC(=O)CNC(=O)c1cccc(Cl)c1)c1ccccc1: 5
OCCCNc1cc(-c2ccnc(Nc3cccc(Cl)c3)n2)ccn1: 35
Cn1cc(C(=O)OCC2CCN(CCNS(C)(=O)=O)CC2)c2ccccc21: 8
CCC(=O)OCC(=O)[C@@]1(OC(=O)CC)[C@@H](C)C[C@H]2[C@@H]3CCC4=CC(=O)C=C[C@]4(C)[C@@]3(Cl)[C@@H](O)C[C@@]21C [BECLOMETHASONE DIPROPIONATE]: 9

Recall and state the measured Population Pyknosed Nuclei (%) for CN(C)C/C=C/C(=O)Nc1ccc(C(=O)N2CCCC(Nc3ncc(Cl)c(-c4c[nH]c5ccccc45)n3)C2)cc1 (stereo not given) .
23

Recall and state the measured Population Pyknosed Nuclei (%) for Cl.Cl.OCCOCCN1CCN(C(c2ccccc2)c2ccc(Cl)cc2)CC1 (stereo not given) [HYDROXYZINE HYDROCHLORIDE] .
5

Recall and state the measured Population Pyknosed Nuclei (%) for CN1CCN2c3ccccc3Cc3ccccc3C2C1.Cl (stereo not given) [MIANSERIN HYDROCHLORIDE] .
6

Recall and state the measured Population Pyknosed Nuclei (%) for Cc1nn(C)c2nc(NNC(=O)Nc3cc(Cl)nc(Cl)c3)cc(C(C)C)c12 .
9

Recall and state the measured Population Pyknosed Nuclei (%) for COc1cc(C(=O)N2CC[C@@H](O)[C@@H](N)C2)cc2nc(-c3cc4ccccc4n3CC3CC3)n(C)c12.Cl .
10

Recall and state the measured Population Pyknosed Nuclei (%) for Cc1cc(-c2ccc3c(c2)CC[C@H]3N2CC3(CCN(C(=O)Cc4cn5cc(C)sc5n4)CC3)C2)ncn1 .
5

Recall and state the measured Population Pyknosed Nuclei (%) for CN1C[C@H](C(=O)N[C@]2(C)O[C@@]3(O)[C@@H]4CCCN4C(=O)[C@H](Cc4ccccc4)N3C2=O)C[C@@H]2c3cccc4[nH]cc(c34)C[C@H]21.CS(=O)(=O)O [DIHYDROERGOTAMINE MESYLATE] .
6
